All figures here come from patent US20120301476A1.

target-desc: T1, human CAPRIN-1 protein on the cell surfaces of human cancer cell lines and in human cancer tissues (human, UniProt Q14444 2-709); also: test concentration or dose not given here
T1 sequence (looked up): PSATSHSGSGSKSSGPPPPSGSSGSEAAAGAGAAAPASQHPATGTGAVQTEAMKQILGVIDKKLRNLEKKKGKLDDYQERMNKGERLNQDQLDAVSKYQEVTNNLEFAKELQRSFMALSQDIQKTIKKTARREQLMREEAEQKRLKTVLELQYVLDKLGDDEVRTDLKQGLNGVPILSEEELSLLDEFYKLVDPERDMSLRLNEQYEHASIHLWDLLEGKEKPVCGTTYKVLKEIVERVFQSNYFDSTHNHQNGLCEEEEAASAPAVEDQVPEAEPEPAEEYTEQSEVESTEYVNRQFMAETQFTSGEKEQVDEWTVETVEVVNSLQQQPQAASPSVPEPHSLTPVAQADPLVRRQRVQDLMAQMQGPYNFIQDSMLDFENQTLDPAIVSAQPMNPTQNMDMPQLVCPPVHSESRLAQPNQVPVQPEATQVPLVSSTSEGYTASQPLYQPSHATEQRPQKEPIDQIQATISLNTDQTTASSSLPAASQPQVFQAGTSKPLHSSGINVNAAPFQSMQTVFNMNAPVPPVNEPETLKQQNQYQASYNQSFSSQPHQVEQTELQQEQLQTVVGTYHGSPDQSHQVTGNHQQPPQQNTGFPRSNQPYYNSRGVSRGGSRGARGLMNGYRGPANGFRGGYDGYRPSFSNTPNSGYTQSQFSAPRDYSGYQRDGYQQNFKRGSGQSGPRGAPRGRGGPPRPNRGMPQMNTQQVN
measurement-protocol: cell-based or functional assay
So I've got a bunch of binders here, and I need their cytotoxic activity (ADCC) against Caki-1 values.

binder	observed
anti-CAPRIN-1 mouse monoclonal antibody #4 (antibody, V domains shown) VH: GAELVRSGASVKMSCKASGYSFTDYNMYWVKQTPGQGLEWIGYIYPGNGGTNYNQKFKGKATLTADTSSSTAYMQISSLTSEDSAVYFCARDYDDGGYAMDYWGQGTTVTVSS VL: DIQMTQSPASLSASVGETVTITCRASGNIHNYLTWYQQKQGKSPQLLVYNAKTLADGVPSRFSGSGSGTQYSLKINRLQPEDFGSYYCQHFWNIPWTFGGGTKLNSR	≥ 23%
anti-CAPRIN-1 mouse monoclonal antibody #6 (antibody, V domains shown, Mouse hybridoma antibody; detected with anti-mouse IgG) VH: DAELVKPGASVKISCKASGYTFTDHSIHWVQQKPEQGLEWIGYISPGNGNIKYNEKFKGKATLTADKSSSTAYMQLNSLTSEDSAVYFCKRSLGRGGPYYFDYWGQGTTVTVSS VL: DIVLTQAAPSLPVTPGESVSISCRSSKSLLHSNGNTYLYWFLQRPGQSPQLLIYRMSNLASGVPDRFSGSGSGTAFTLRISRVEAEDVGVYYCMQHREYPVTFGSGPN	≥ 23%
anti-CAPRIN-1 mouse monoclonal antibody #5 (antibody, V domains shown, Mouse hybridoma antibody; detected with anti-mouse IgG) VH: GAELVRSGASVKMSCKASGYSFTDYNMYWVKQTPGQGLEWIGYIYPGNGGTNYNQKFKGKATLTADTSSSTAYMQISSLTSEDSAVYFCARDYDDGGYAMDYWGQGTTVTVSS VL: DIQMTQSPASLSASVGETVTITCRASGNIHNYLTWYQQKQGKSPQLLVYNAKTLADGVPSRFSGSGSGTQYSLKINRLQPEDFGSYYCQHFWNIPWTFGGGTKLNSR	≥ 23%

Proceeding to the next binder to report its cytotoxic activity (ADCC) against Caki-1.
Reported cytotoxic activity (ADCC) against Caki-1, binder human-chicken chimeric antibody #1 having the chicken monoclonal antibody #1 variable region (antibody, V domains shown, also called anti-CAPRIN-1 antibody #1; human-chicken chimeric monoclonal antibody (#1); not shown: human IgG1 H-chain constant region; human IgG1 L-chain constant region) VH: AVTLDESGGGLQMSRGGLSLVCKASGFDFSSYQMNWIRQAPGKGLEFVAAINKFGNSTGHGAAVKGRVTISRDNGQSTVRLQLNNLRAEDTAIYFCTKHAYGYCGSGTWCAAGEIDAWGHGTEVIVSS VL: QAASTQPSSVSANPGETVEITCSGGGSYSYGWFQQKSPGSAPVTVIYYNNKRPSDIPSRFSGSKSGSTGTLTITGVQADDEAVYYCGSGDSTDTAVFGAGTTLTVLG : ____
27%
